Exercise: state measured melting point for each of the compounds provided.

| COMPOUND | melting point |
| --- | --- |
| Cc1cc(Cl)cc2c(-c3ccccc3)onc12 | 108 to 109 °C |
| Cc1cc(SCc2ccnc3oc(-c4ccc(C(F)(F)F)cc4)nc23)ccc1OCC(=O)O | 154 to 157 °C |
| CCCc1c(C(=O)CC(C)OC)c2ccc(C(N)=O)cc2n1Cc1cc2c(cc1Cl)OCO2 (stereo not drawn) | 190 to 192 °C |
| CC(=O)CC(=O)Nc1ccc(Nc2ccccc2)cc1 | 89.5 °C |
| CC(C)=CCNC(=O)CCC(NC(=O)C=Cc1ccco1)C(=O)NCC=C(C)C (stereo not drawn) | 199 to 203 °C |
| CC1=CC(=O)C=CC1(C)C(Cl)(Cl)Cl (stereo not drawn) | 57 °C |

// each listed compound needs a value for melting point
1. Oc1ccc(C2CC(c3ccc(O)cc3)C2)cc1 (stereo not drawn)
2. Nc1ccc(-c2nc3cc(OCc4ccccc4)ccc3s2)c(Cl)c1
3. COc1ccc2[nH]ccc2c1Cl
4. NS(=O)(=O)c1ccc(-c2cnn(Cc3ccc(F)c(F)c3F)c(=O)c2-c2ccc(F)cc2)cc1
5. O=c1ccsn1Cc1ccc2c(c1)CCO2

["148 to 164 °C", "119 to 121 °C", "112 to 113 °C", "218 to 220 °C", "100 to 102 °C"]

// each listed compound needs a value for melting point
1. Nc1ccc2c(c1)C(=O)C1(CCOC1=O)S2 (stereo not drawn)
2. O=C1c2nccc([N+](=O)[O-])c2-c2nc3ccccc3c3ccnc1c23

1. 187 to 190 °C
2. > 260 °C

// each listed compound needs a value for melting point
1. O=S(=O)(CCC=C(F)F)c1nccc(-c2ccccc2)n1
2. CCN(CC)c1ccc([PH](=O)c2ccc(N(CC)CC)cc2)cc1
3. CC12NCCCN1C(=O)c1ccccc12 (stereo not drawn)
4. CCCCCCCCN(Cc1ccc(CN(CCCCCCCC)OC(=O)c2ccccc2)cc1)OC(=O)c1ccccc1
5. CC1(C)CCC(C)(C)c2cc(CC#Cc3ccc(C(=O)Nc4ccc(O)cc4)cc3)ccc21
6. CC1(C)CCC(C)(C)c2c(OCc3ccc(C(F)(F)F)cc3)cc(C(O)C#Cc3ccc(C(=O)O)cc3)cc21 (stereo not drawn)

["103 to 104 °C", "129 °C", "64.5 °C", "80 to 81 °C", "159 to 160 °C", "222 °C"]

// each listed compound needs a value for melting point
1. ON=Cc1cc(-c2ncc(C(F)(F)F)cc2Cl)ccc1Cl
2. O=C(O)C1=Cc2cc(Cl)cc(-c3nc4ccccc4[nH]3)c2OC1C(F)(F)F (stereo not drawn)
3. CC(=O)NC(=CBr)C(=O)OC(C)(C)C

1: 173 to 174 °C; 2: > 300 °C; 3: 106 to 107 °C

// each listed compound needs a value for melting point
1. COC(=N)N1CCC(c2nn(-c3ccc(C(F)(F)F)cc3)c3ccccc23)CC1
2. O=S(=O)(NCC(O)(Cn1cncn1)c1ccc(F)cc1F)c1ccc(C(F)(F)F)cc1 (stereo not drawn)
3. CN1CCN(c2cccc3c2C[C@H](NC(=O)c2ccc(N4CCNCC4)cc2)CO3)CC1

["113 to 115 °C", "161 to 162 °C", "> 102 °C"]

// each listed compound needs a value for melting point
1. C=CC(=O)N[C@H](C)C(=O)OC1(C)CCC(C(C)C)CC1 (stereo partly drawn)
2. Nc1cnc(-c2cc(Cl)cc(Cl)c2Cl)c(NC(=O)C2CC2)n1
3. O=C(O)c1ccc(S(=O)(=O)n2cccc2)s1
4. CN(C)c1ncnc2c1ncn2Cc1c(Cl)cccc1Cl
5. O=C(O)Cc1ccc(Cc2nc3c(F)c(F)cc(F)c3s2)cc1
6. O=C(NCCO[N+](=O)[O-])c1csc(C(F)(F)F)n1
7. N#Cc1cn(-c2c(Cl)cc(C(F)(F)F)cc2Cl)nc1F

1: 79 °C; 2: 188 to 190 °C; 3: 191 to 194 °C; 4: 174 to 175 °C; 5: 173 to 175 °C; 6: 81 to 82 °C; 7: 120 to 121 °C

Measured melting point of Nc1ccc(C(=O)N2CCOCC2)cc1[N+](=O)[O-] : 184 to 189 °C

----------
Exercise: state measured melting point for each of the compounds provided.

Example results:
| COMPOUND | melting point |
| --- | --- |
| CC(O)=C(C#N)C(=O)Oc1cccc(Cl)c1Cl | 142 to 146 °C |
| Nc1ncnc2ncn(CCO)c12 | 132 to 133 °C |
| Cc1cc(C)c(C=NNC(=O)c2ccc(O)cc2)[nH]1 | 261 °C |
| O=C(NCc1cccc(F)c1)NNC(=O)c1ccc2c(c1)CCO2 | 200 to 201 °C |
| COc1cc(OC)nc(Cc2ccccc2NS(=O)(=O)C(F)(F)F)n1 | 99 to 100 °C |

// each listed compound needs a value for melting point
1. CCCCCCCCCCCCC(=O)CC
2. CC(C)(C)OC(=O)NCC(Cl)c1ccco1 (stereo unspecified)

1. 84 to 86 °C
2. 75 to 77 °C

----------
Exercise: state measured melting point for each of the molecules provided.

| MOLECULE | melting point |
| --- | --- |
| Cn1cc(C(=O)NCc2ccc(Cl)cc2)c(=O)c2scc(COCC[Si](C)(C)C)c21 | 135 to 136 °C |
| O=C(O)C(c1ccc(Cl)cc1)c1c(Cl)cc(-n2ncc(=O)[nH]c2=O)cc1Cl (stereo not given) | 220 °C |
| O=C(c1c[nH]c2ccc(Br)cc12)[C@H]1CCCN1C(=O)OCc1ccccc1 | 95 to 96 °C |
| O=C(CC(O)c1ccncc1)c1ccccc1O (stereo not given) | 150 °C |
| CCC(=O)Cc1nc2ccccc2c(=O)o1 | 70 to 72 °C |

// each listed molecule needs a value for melting point
1. CC1NC(=O)NN=C1c1ccc(S)cc1 (stereo not given)
2. O=C(C=Cc1ccccc1)c1ccc(N2CCN(c3ccncc3)CC2)cc1
3. CSC(=NCc1ccc(CCO)cc1)NC#N
4. Cc1c(OCC(F)(F)F)ccnc1CSc1nc2cc(N3CCN(C)CC3)c(F)cc2[nH]1
5. Nc1cc(F)nc(F)c1F

202 to 204 °C
208 to 210 °C
164 to 165 °C
109 to 110 °C
94 to 96 °C

----------
ENDPOINT_LABEL: melting point

| MOLECULE | EXPERIMENTAL_RESULT |
| --- | --- |
| O=C(Cn1c(-c2cccc(Cl)c2)nc2cccnc21)Nc1ccccn1 | 165 to 166 °C |
| COc1cc2sc(C)nc2cc1C | 89 to 90 °C |
| Cn1nc(-c2cc(C(=O)O)c(Cl)cc2F)c(Cl)c1C(F)(F)F | 179 to 181 °C |
| CC(C)(C(=O)O)c1ccc(C(=O)Nc2cn3cc(-c4ccsc4)ccc3n2)cc1 | 304 to 306 °C |
| CC(C)(C)OC(=O)N1CCC(C(=O)c2nc3ccccc3s2)CC1 | 94 to 95 °C |
| CN1CCC(OC(c2cccc(C#CCCCN)c2)c2nc3ccccc3[nH]2)CC1 (centres undefined) | 82 °C |
| Oc1ccc(C(c2ccc(O)cc2)c2ccccc2CN2CCN(c3ccccc3Cl)CC2)cc1 | 149 to 151 °C |
| COc1cc2c(cc1OC)CN(CCCNS(=O)(=O)c1cc(Cl)c(F)cc1F)CC2 | 110 to 112 °C |

Continue with the molecule presented below.
Measured melting point of CCCNON=C(C)C1=CCCN(C)C1 : 78 to 79 °C

----------
Exercise: state measured melting point for each of the molecules provided.

Example results:
| MOLECULE | melting point |
| --- | --- |
| Cc1c(C(F)(F)F)noc1N | 53 to 54 °C |
| CN1c2ccc(Cl)cc2C(c2ccccc2F)=Nc2cccnc21 | 136 to 138 °C |
| CC1(O)CC(=O)OC(CCCc2ccc(OCc3ccccc3)cc2)C1Br (stereo unspecified) | 100 to 101 °C |

// each listed molecule needs a value for melting point
1. CN1CCN(C(=NO)C2=Nc3ccc(Cl)cc3C(c3ccccc3F)=NC2)CC1
2. CC=C(C)C1CCC2C3CC(=O)C4=CC(=O)CCC4(C)C3CCC12C (stereo unspecified)
3. CC(C)(C(=O)O)n1nc2ccc(NCCCN3CCC(OC(c4ccccc4)c4ccccc4)CC3)nn2c1=O

["198 to 200 °C", "172 to 178 °C", "181 to 185 °C"]

----------
ENDPOINT_LABEL: melting point

Example results:
| COMPOUND | EXPERIMENTAL_RESULT |
| --- | --- |
| O=C(O)c1cc([N+](=O)[O-])ccc1Sc1cccc(Br)c1 | 202 to 206 °C |
| CCCSc1ncc(C(=O)N[C@@H](C)C(=O)O)n1Cc1ccccc1Cl | 173 to 176 °C |

Continue with the compound presented below.
Measured melting point of COc1ccc(C2CNCc3c2ccc(OC)c3C)cc1OC (stereo not drawn) : 128 to 129 °C

// data source = a melting point compilation (Tetko et al.; mined from patent text by program, amines drawn as free bases though some values may be those of a salt)
